molecular target: GRIP2_7, Q9C0E4; assay: holdup assay; design: key: below the threshold = too weak to quantify, mostly under pKd 3.1 to 4; conditions: plain residues with an end cap or a label only (N-terminal biotin on a linker: ahx)
Sequence (Q9C0E4 934-1023): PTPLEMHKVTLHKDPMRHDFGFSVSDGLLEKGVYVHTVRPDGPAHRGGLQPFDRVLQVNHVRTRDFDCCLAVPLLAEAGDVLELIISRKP
reported endpoint: pKd

>  <binder>
KEYDDELTFF [USH1C, Q9Y6N9]

>  <reported endpoint>
pKd

>  <result>
below the threshold

$$$$
>  <binder>
HSATSVHTSV [MTMR1, Q13613]

>  <reported endpoint>
pKd

>  <result>
below the threshold

$$$$
>  <binder>
VNENQKEYFF [CNTNAP4, Q9C0A0]

>  <reported endpoint>
pKd

>  <result>
5.77

$$$$
>  <binder>
ADENEQVSAV [RAPGEF6, Q8TEU7]

>  <reported endpoint>
pKd

>  <result>
below the threshold

$$$$
>  <binder>
AKPQPVDSWV [ARVCF, O00192]

>  <reported endpoint>
pKd

>  <result>
4.13

$$$$

Now for another entry.
Q. Data request, read-out pKd, for KDECVIATEV [DLL1, O00548]
A. below the threshold
